# Measured on: SST2 (Homo sapiens, UniProt P30874)
# Construct: host or cells: PathHunter CHO-K1 SST2 cells
# Sequence (P30874 whole entry): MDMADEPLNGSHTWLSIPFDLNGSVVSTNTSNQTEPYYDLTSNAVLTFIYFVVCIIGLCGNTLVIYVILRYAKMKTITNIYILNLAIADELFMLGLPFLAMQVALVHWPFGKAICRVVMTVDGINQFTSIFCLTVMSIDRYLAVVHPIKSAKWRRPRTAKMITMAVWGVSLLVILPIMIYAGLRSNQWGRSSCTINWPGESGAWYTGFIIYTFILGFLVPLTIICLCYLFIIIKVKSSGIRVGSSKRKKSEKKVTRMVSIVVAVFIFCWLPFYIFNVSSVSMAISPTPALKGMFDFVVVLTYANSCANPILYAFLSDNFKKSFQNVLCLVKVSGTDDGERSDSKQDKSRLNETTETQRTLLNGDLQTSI
# Assay: PathHunter CHO-K1 SST2 Internalization Assay
# Type: cell-based
# Run conditions: PathHunter CHO-K1 SST2 cells; 90 min at 37 C; luminescence; read-out: Internalization EC50
pEC50: −log10 of the molar value.
Parameter: pEC50

CC[C@H](C)[C@@H]([C@@H](CC(=O)N1CCC[C@H]1[C@H](OC)[C@@H](C)C(=O)N[C@H](C)[C@@H](O)c1ccccc1)OC)N(C)C(=O)[C@@H](NC(=O)[C@H](C(C)C)N(C)C(=O)OCc1ccc(NC(=O)[C@H](C)NC(=O)[C@@H](NS(=O)(=O)C[C@H](C)NC(=O)CCOCCC(=O)NCCNc2ncc(-c3cc(C)cc(F)c3)c(N3CCC(N)CC3)c2-c2nc3ccc(Cl)cc3[nH]2)C(C)C)c(O[C@@H]2O[C@H](C(=O)N(C)CC(=O)O)[C@@H](O)[C@H](O)[C@H]2O)c1)C(C)C: 8.06
CC[C@H](C)[C@@H]([C@@H](CC(=O)N1CCC[C@H]1[C@H](OC)[C@@H](C)C(=O)N[C@H](C)[C@@H](O)c1ccccc1)OC)N(C)C(=O)[C@@H](NC(=O)[C@H](C(C)C)N(C)C(=O)OCc1ccc(NC(=O)[C@H](C)NC(=O)[C@@H](NC(=O)CCOCCC(=O)NCCNc2ncc(-c3cc(C)cc(F)c3)c(N3CCC(N)CC3)c2-c2nc3ccc(Cl)cc3[nH]2)C(C)C)c(OCC(=O)O)c1)C(C)C: 8.49

---

# Measured on: SST2 (Homo sapiens, UniProt P30874)
# Construct: host or cells: PathHunter CHO-K1 SST2 cells
# Assay: PathHunter CHO-K1 SST2 Internalization Assay
# Format: cell-based
# Run conditions: PathHunter CHO-K1 SST2 cells; 90 min at 37 C; luminescence; read-out: Internalization EC50
pEC50: −log10 of the molar value.
Parameter: pEC50

CC[C@H](C)[C@@H]([C@@H](CC(=O)N1CCC[C@H]1[C@H](OC)[C@@H](C)C(=O)N[C@H](C)[C@@H](O)c1ccccc1)OC)N(C)C(=O)[C@@H](NC(=O)[C@H](C(C)C)N(C)C(=O)OCc1ccc(NC(=O)[C@H](CCCNC(N)=O)NC(=O)[C@@H](NC(=O)[C@H](CCC(N)=O)NC(=O)CCOCCC(=O)NCCNc2ncc(-c3cc(C)cc(F)c3)c(N3CCC(N)CC3)c2-c2nc3ccc(Cl)cc3[nH]2)C(C)C)cc1C(=O)O)C(C)C [Compound 5]: 8.66
CC[C@H](C)[C@@H]([C@@H](CC(=O)N1CCC[C@H]1[C@H](OC)[C@@H](C)C(=O)N[C@H](C)[C@@H](O)c1ccccc1)OC)N(C)C(=O)[C@@H](NC(=O)[C@H](C(C)C)N(C)C(=O)OCc1ccc(NC(=O)[C@H](CCCNC(N)=O)NC(=O)[C@@H](NC(=O)c2cc(NC(=O)CCCC(=O)NCCNc3ncc(-c4cc(C)cc(F)c4)c(N4CCC(N)CC4)c3-c3nc4ccc(Cl)cc4[nH]3)cc(C(=O)NC[C@@H](N)C(=O)O)c2)C(C)C)cc1)C(C)C [Compound 170]: 7.92
CC[C@H](C)[C@@H]([C@@H](CC(=O)N1CCC[C@H]1[C@H](OC)[C@@H](C)C(=O)N[C@H](C)[C@@H](O)c1ccccc1)OC)N(C)C(=O)[C@@H](NC(=O)[C@H](C(C)C)N(C)C(=O)OCc1ccc(NC(=O)[C@H](CCCNC(N)=O)NC(=O)[C@@H](NC(=O)CCOCCC(=O)N(C)CC(=O)NCCNc2ncc(-c3cc(C)cc(F)c3)c(N3CCC(N)CC3)c2-c2nc3ccc(Cl)cc3[nH]2)C(C)C)c(O[C@@H]2O[C@H](C(=O)NCCN(C)C)[C@@H](O)[C@H](O)[C@H]2O)c1)C(C)C [Compound 215]: 8.11
CC[C@H](C)[C@@H]([C@@H](CC(=O)N1CCC[C@H]1[C@H](OC)[C@@H](C)C(=O)N[C@H](C)[C@@H](O)c1ccccc1)OC)N(C)C(=O)[C@@H](NC(=O)[C@H](C(C)C)N(C)C(=O)OCc1ccc(NC(=O)[C@H](CCCNC(N)=O)NC(=O)[C@@H](NC(=O)CCOCCC(=O)NCCNc2ncc(-c3cc(C)cc(F)c3)c(N3CCC(N)CC3)c2-c2cc3ccc(Cl)cc3[nH]2)C(C)C)c(O[C@@H]2C[C@H](C(=O)NCCN)[C@@H](O)[C@H](O)[C@H]2O)c1)C(C)C [Compound 43]: 8.18
CC[C@H](C)[C@@H]([C@@H](CC(=O)N1CCC[C@H]1[C@H](OC)[C@@H](C)C(=O)N[C@H](C)[C@@H](O)c1ccccc1)OC)N(C)C(=O)[C@@H](NC(=O)[C@H](C(C)C)N(C)C(=O)OCc1ccc(NC(=O)[C@H](C)NC(=O)[C@@H](NC(=O)[C@H](CS(=O)(=O)O)NC(=O)CCOCCC(=O)NCCNc2ncc(-c3cc(C)cc(F)c3)c(N3CCC(N)CC3)c2-c2nc3ccc(Cl)cc3[nH]2)C(C)C)cc1C(=O)NCCN)C(C)C [Compound 27]: 8.14

---

# Measured on: SST2 (Homo sapiens, UniProt P30874)
# Construct: host or cells: PathHunter CHO-K1 SST2 cells
# Assay: PathHunter CHO-K1 SST2 Internalization Assay
# Type: cell-based
# Run conditions: PathHunter CHO-K1 SST2 cells; 90 min at 37 C; luminescence; read-out: Internalization EC50
pEC50: −log10 of the molar value.
Parameter: pEC50

CC[C@H](C)[C@@H]([C@@H](CC(=O)N1CCC[C@H]1[C@H](OC)[C@@H](C)C(=O)N[C@H](C)[C@@H](O)c1ccccc1)OC)N(C)C(=O)[C@@H](NC(=O)[C@H](C(C)C)N(C)C(=O)OCc1ccc(NC(=O)[C@H](CCCNC(N)=O)NC(=O)[C@@H](NC(=O)C[C@@H](N)C(=O)NCCOCCOCCOCCOCCC(=O)NCCNc2ncc(-c3cc(C)cc(F)c3)c(N3CCC(N)CC3)c2-c2nc3ccc(Cl)cc3[nH]2)C(C)C)c(OCC(=O)O)c1)C(C)C: 7.70
CC[C@H](C)[C@@H]([C@@H](CC(=O)N1CCC[C@H]1[C@H](OC)[C@@H](C)C(=O)N[C@H](C)[C@@H](O)c1ccccc1)OC)N(C)C(=O)[C@@H](NC(=O)[C@H](C(C)C)N(C)C(=O)OCc1ccc(NC(=O)[C@H](CCCNC(N)=O)NC(=O)[C@@H](NC(=O)C[C@@H](N)C(=O)NCCOCCC(=O)NCCNc2ncc(-c3cc(C)cc(F)c3)c(N3CCC(N)CC3)c2-c2nc3ccc(Cl)cc3[nH]2)C(C)C)c(CCC(=O)O)c1)C(C)C: 8.28
CC[C@H](C)[C@@H]([C@@H](CC(=O)N1CCC[C@H]1[C@H](OC)[C@@H](C)C(=O)N[C@H](C)[C@@H](O)c1ccccc1)OC)N(C)C(=O)[C@@H](NC(=O)[C@H](C(C)C)N(C)C(=O)OCc1ccc(NC(=O)[C@H](CCCNC(N)=O)NC(=O)[C@@H](NC(=O)[C@H](CCCO)NC(=O)CCOCCC(=O)NCCNc2ncc(-c3cc(C)cc(F)c3)c(N3CCC(N)CC3)c2-c2nc3cc(Cl)ccc3[nH]2)C(C)C)c(O[C@@H]2O[C@H](C(=O)NCC(=O)O)[C@@H](O)[C@H](O)[C@H]2O)c1)C(C)C [Compound 219]: 8.57
CC[C@H](C)[C@@H]([C@@H](CC(=O)N1CCC[C@H]1[C@H](OC)[C@@H](C)C(=O)N[C@H](C)[C@@H](O)c1ccccc1)OC)N(C)C(=O)[C@@H](NC(=O)[C@H](C(C)C)N(C)C(=O)OCc1ccc(NC(=O)[C@H](CCCNC(N)=O)NC(=O)[C@@H](NC(=O)C[C@@H](N)C(=O)NCCOCCNC(=O)c2cc(NCCOCCC(=O)NCCNc3ncc(-c4cc(C)cc(F)c4)c(N4CCC(N)CC4)c3-c3nc4cc(F)cc(OC)c4[nH]3)cc(C(=O)NCC(=O)O)c2)C(C)C)cc1)C(C)C: 8.39
CC[C@H](C)[C@@H]([C@@H](CC(=O)N1CCC[C@H]1[C@H](OC)[C@@H](C)C(=O)N[C@H](C)[C@@H](O)c1ccccc1)OC)N(C)C(=O)[C@@H](NC(=O)[C@H](C(C)C)N(C)C(=O)OCc1ccc(NC(=O)[C@H](CCCNC(N)=O)NC(=O)[C@@H](NC(=O)[C@H](CCC(=O)O)NC(=O)CCOCCC(=O)NCCNc2ncc(-c3cc(C)cc(F)c3)c(N3CCC(N)CC3)c2-c2nc3ccc(Cl)cc3[nH]2)C(C)C)cc1C(=O)NCCN(C)C)C(C)C: 8.54
CC[C@H](C)[C@@H]([C@@H](CC(=O)N1CCC[C@H]1[C@H](OC)[C@@H](C)C(=O)N[C@H](C)[C@@H](O)c1ccccc1)OC)N(C)C(=O)[C@@H](NC(=O)[C@H](C(C)C)N(C)C(=O)OCc1ccc(NC(=O)[C@H](C)NC(=O)[C@@H](NC(=O)CCOCCC(=O)NCCNc2ncc(-c3cc(C)cc(F)c3)c(N3CCC(N)CC3)c2-c2nc3cc(F)c(F)cc3[nH]2)C(C)C)c(O[C@@H]2O[C@H](C(=O)O)[C@@H](O)[C@H](O)[C@H]2O)c1)C(C)C: 8.09
CC[C@H](C)[C@@H]([C@@H](CC(=O)N1CCC[C@H]1[C@H](OC)[C@@H](C)C(=O)N[C@H](C)[C@@H](O)c1ccccc1)OC)N(C)C(=O)[C@@H](NC(=O)[C@H](C(C)C)N(C)C(=O)OCc1ccc(NC(=O)[C@H](CCCNC(N)=O)NC(=O)[C@@H](NC(=O)[C@H](CCC(=O)O)NC(=O)CCOCCC(=O)NCCNc2ncc(-c3cc(C)cc(F)c3)c(N3CCC(N)CC3)c2-c2nc3ccc(Cl)cc3[nH]2)C(C)C)c(C(F)(F)F)c1)C(C)C: 8.46
CC[C@H](C)[C@@H]([C@@H](CC(=O)N1CCC[C@H]1[C@H](OC)[C@@H](C)C(=O)N[C@H](C)[C@@H](O)c1ccccc1)OC)N(C)C(=O)[C@@H](NC(=O)[C@H](C(C)C)N(C)C(=O)OCc1ccc(NC(=O)[C@H](CCCNC(N)=O)NC(=O)[C@@H](NC(=O)CCOCCC(=O)NCCNc2ncc(-c3cc(C)cc(F)c3)c(N3CCC(N)CC3)c2-c2nc3ccc(Cl)cc3[nH]2)C(C)C)c(O[C@@H]2O[C@H](C(=O)NCCN)[C@@H](O)[C@H](O)[C@H]2O)c1)C(C)C: 8.06
CC[C@H](C)[C@@H]([C@@H](CC(=O)N1CCC[C@H]1[C@H](OC)[C@@H](C)C(=O)N[C@H](C)[C@@H](O)c1ccccc1)OC)N(C)C(=O)[C@@H](NC(=O)C(C(C)C)N(C)C(=O)OCc1ccc(NC(=O)[C@H](CCCNC(N)=O)NC(=O)[C@@H](NC(=O)CCOCCC(=O)NCCNc2ncc(-c3cc(C)cc(F)c3)c(N3CCC(N)CC3)c2-c2nc3ccc(Cl)cc3[nH]2)C(C)C)c(O[C@@H]2O[C@H](C(=O)N3CCN(CCO)CC3)[C@@H](O)[C@H](O)[C@H]2O)c1)C(C)C (stereo partly drawn): 8.32
